These entries and their values trace back to ChEMBL document CHEMBL3867477.

# EXPERIMENT: Aqueous solubility of the compound at pH 2
# Type: physicochemical
# RUN CONDITIONS: aqueous medium
MEASUREMENT KIND: solubility (µM)
State just the number; it will be interpreted in µM.

Challenge: Consider the compound `O=C(c1cccn2cncc12)N1CCC(F)(F)[C@@H](Oc2ccc3ccccc3n2)C1` and give its measured solubility.
Response given: 194

Challenge: Consider the compound `O=C(c1nccc2[nH]cnc12)N1CCC(F)(F)[C@@H](Oc2ccc3ccccc3n2)C1` and give its measured solubility.
Response given: 192

----------
# EXPERIMENT: Protein binding in dog plasma
# Assay type: ADME, cell-free, Canis lupus familiaris
# RUN CONDITIONS: read-out: PPB (converted)
Hi there, I'd appreciate the recorded fraction unbound for every entry that follows.
Please state the value as a number alone, without comment.

Challenge: Consider the compound `O=C(c1nccc2[nH]cnc12)N1CCC(F)(F)[C@@H](Oc2ccc3ccccc3n2)C1` and give its measured fraction unbound.
Response given: 0.2

Challenge: Consider the compound `O=C(c1cccn2cncc12)N1CCC(F)(F)[C@@H](Oc2ccc3ccccc3n2)C1` and give its measured fraction unbound.
Response given: 0.08
